PROCEDURE_TEXT: solvent given as SMILES
CONDITION_INFO: in ClCCl
The following compounds are shown together with reported emission maximum values.
Field: numeric (nm). Do not append units.

- CCCCCCN(CCCCCC)c1ccc(C#Cc2ccc(C(F)(F)F)cc2)cc1: 440
- CC(C)(C)c1ccc(-n2c(-c3ccc(-c4ccc(N(c5ccccc5)c5ccccc5)cc4)s3)nc3c4ccccc4c4ccccc4c32)cc1: 419
- Fc1ccc(N(c2ccccc2)c2ccc3ccc4c(N(c5ccccc5)c5ccc(F)cc5)ccc5ccc2c3c54)cc1: 470

Qu. Please give the measured emission maximum for this compound: CCOC(=O)COc1ccc(/C=C/C2=C3c4ccccc4C(c4[nH]c(C)cc4C)=[N+]3[B-](F)(F)n3c(/C=C/c4ccc(OCC(=O)OCC)cc4)cc(C)c32)cc1
Ans. 733

* * *

PROCEDURE_TEXT: solvent given as SMILES
CONDITION_INFO: in c1ccccc1
The following molecules are shown together with reported emission maximum values.
The reply should consist of the numeric value with the unit placed after it.

• CCCCCCCCCCCCCCCCN(CCCCCCCCCCCCCCCC)c1ccc(/C=C/c2cc[n+](Cc3cc(C[n+]4ccc(/C=C/c5ccc(N(CCCCCCCCCCCCCCCC)CCCCCCCCCCCCCCCC)cc5)cc4)cc(C[n+]4ccc(/C=C/c5ccc(N(CCCCCCCCCCCCCCCC)CCCCCCCCCCCCCCCC)cc5)cc4)c3)cc2)cc1 = 562 nm
• CON(C)C(=O)c1ccc(/C=C/c2ccc(/C=C/c3ccc(C(=O)N(C)OC)cc3)cc2)cc1 = 434 nm
• COc1ccc(-c2c3ccc([nH]3)c3nc(c(-c4ccc(C#N)cc4)c4ccc([nH]4)c4ccc([nH]4)c(-c4ccc(OC)cc4)c4ccc2o4)C=C3)cc1 = 724 nm
• CCOC(=O)CN(CC(=O)OCC)c1ccc(-c2cc(-c3ccccn3)nc(-c3ccccn3)c2)cc1 = 400 nm
• CN(C)c1ccc(/C=C2\CCCC2=O)cc1 = 435 nm

Qu. Please give the measured emission maximum for this molecule: F[B-]1(F)n2c(c3cc4ccccc4cc3c2-c2ccccc2)C=C2c3cc4ccccc4cc3C(c3ccccc3)=[N+]21
Ans. 785 nm

Qu. Please give the measured emission maximum for this molecule: CCOC(=O)CN(CC(=O)OCC)c1ccc(-c2cc(-c3ccncc3)nc(-c3ccncc3)c2)cc1
Ans. 412 nm

Qu. Please give the measured emission maximum for this molecule: CNc1ccc2c(c1)-c1ccccc1C2=O
Ans. 509 nm

Qu. Please give the measured emission maximum for this molecule: O=C1OC(=O)c2ccc(N(c3ccccc3)c3ccc4ccccc4c3)c3cccc1c23
Ans. 580 nm

Qu. Please give the measured emission maximum for this molecule: CC1(C)Nc2ccccc2-c2[nH]c3ccccc3c(=O)c21
Ans. 474 nm

* * *

PROCEDURE_TEXT: solvent given as SMILES
CONDITION_INFO: in CCCCCC
We use 500 nm as the dividing line for emission maximum: on or above the line is label 1, below is label 0.

Some solved cases for reference:
- Cc1ccc(-n2cccc2)cc1: label 0
- Cc1cc(O)c(C(C)C)cc1/N=C/c1ccc(C(F)(F)F)cc1: label 0
- CC(C)(C)c1ccc2c(c1)c1cc(C(C)(C)C)ccc1n2-c1cc(-n2c3ccc(C(C)(C)C)cc3c3cc(C(C)(C)C)ccc32)c(-n2c3ccc(C(C)(C)C)cc3c3cc(C(C)(C)C)ccc32)c(C#N)c1-n1c2ccc(C(C)(C)C)cc2c2cc(C(C)(C)C)ccc21: label 0

Qu. Check if emission maximum >= 500 nm (inclusive). Item: CCCCCCCCCCCCCCCCN(CCCCCCCCCCCCCCCC)c1ccc(/C=C/c2cc[n+](Cc3cc(C[n+]4ccc(/C=C/c5ccc(N(CCCCCCCCCCCCCCCC)CCCCCCCCCCCCCCCC)cc5)cc4)cc(C[n+]4ccc(/C=C/c5ccc(N(CCCCCCCCCCCCCCCC)CCCCCCCCCCCCCCCC)cc5)cc4)c3)cc2)cc1
Ans. label 1

Qu. Check if emission maximum >= 500 nm (inclusive). Item: COC(=O)c1c(C(=O)OC)c2ccc(-c3ccccc3)nn2c1C
Ans. label 0

* * *

The following compounds are shown together with reported emission maximum values.
PROCEDURE_TEXT: solvent given as SMILES
CONDITION_INFO: in CCCCO
Field: numeric (nm). Do not append units.

Below, each entry is followed by its recorded emission maximum result.
- COc1ccc2cc([C@H](C)C(=O)O)ccc2c1: 351.4
- COC1=C/C(=C\C=C2C=CN(Cc3ccc(Br)cc3)C=C2)C=CC1=O: 640
- COCCOc1cc(C=O)c(OCCOC)cc1C=O: 462
- COc1ccc2c(=O)c3c([nH]c2c1)-c1cc(Cl)ccc1NC3(C)C: 525

Qu. Please give the measured emission maximum for this compound: CC1(C)Nc2ccccc2-c2[nH]c3ccccc3c(=O)c21
Ans. 521

Qu. Please give the measured emission maximum for this compound: COc1ccc(/C=N/c2cc(C(C)C)c(O)cc2C)cc1
Ans. 414

Qu. Please give the measured emission maximum for this compound: C=Cc1ccc(-c2ccc(-c3nnc(-c4ccc(-c5nnc(-c6ccc(-c7ccc(C=C)cc7)s6)o5)cc4)o3)s2)cc1
Ans. 400

Qu. Please give the measured emission maximum for this compound: Cc1c2ccncc2c(C)c2c1[nH]c1ccccc12
Ans. 427

* * *

PROCEDURE_TEXT: solvent given as SMILES
CONDITION_INFO: in ClCCl
RECORDED_ENDPOINT: emission maximum (nm)
Field: numeric (nm). Do not append units.

Below, each entry is followed by its recorded emission maximum result.
* CC1=C(Br)C(C)=[N+]2C1=C(c1c(-c3ccccn3)nc3ccccn13)c1c(C)c(Br)c(C)n1[B-]2(F)F | 571
* O=Cc1c(O)c(-c2nc3ccccc3s2)cc2ccccc12 | 505

Qu. Please give the measured emission maximum for this compound: O=C1OC(=O)c2ccc(N(c3ccccc3)c3ccc4ccccc4c3)c3cccc1c23
Ans. 638

Qu. Please give the measured emission maximum for this compound: c1ccc(C2(c3ccccc3)c3ccc4ccc5ccccc5c4c3-c3c2ccc2ccc4ccccc4c32)cc1
Ans. 421

* * *

PROCEDURE_TEXT: solvent given as SMILES
CONDITION_INFO: in C1CCCCC1
The following compounds are shown together with reported emission maximum values.
Field: numeric (nm). Do not append units.

Below, each entry is followed by its recorded emission maximum result.
• Cc1c2ccncc2c(C)c2c1[nH]c1ccccc12 = 392
• COc1ccc(/C=C(\c2ccccc2)c2nc3ccccc3s2)cc1 = 400

Qu. Please give the measured emission maximum for this compound: C1=C(c2ccccc2)B(c2ccccc2)Nc2c1ccc1ccccc21
Ans. 396

* * *

PROCEDURE_TEXT: solvent given as SMILES
CONDITION_INFO: in CCCCCC
RECORDED_ENDPOINT: emission maximum (nm)
Field: numeric (nm). Do not append units.

Below, each entry is followed by its recorded emission maximum result.
* CN(C)c1cc(C#N)c(N(C)C)c(C#N)c1 | 493.83
* CC1=CC(C)=[N+]2C1=C(C)c1cccn1[B-]2(F)F | 498

Qu. Please give the measured emission maximum for this compound: CC1=CC(C)=[N+]2C1=C(c1c3ccccc3c(-c3ccccc3)c3ccccc13)c1c(C)cc(C)n1[B-]2(F)F
Ans. 514

* * *

The following compounds are shown together with reported emission maximum values.
PROCEDURE_TEXT: solvent given as SMILES
CONDITION_INFO: in CCOC(C)=O
The reply should consist of the numeric value with the unit placed after it.

Below, each entry is followed by its recorded emission maximum result.
* Cc1n[nH]c2c1C(c1ccc([N+](=O)[O-])cc1)C(C#N)=C(N)O2 (configuration not stated) | 396 nm
* CCCCCCCCCCCCOc1cc2cc(N(C)C)ccc2cc1C=O | 450 nm
* Cc1ccc(C2=C3C=CC(c4ccccc4)=[N+]3[B-](F)(F)n3c(Cl)ccc32)cc1 | 551 nm

Qu. Please give the measured emission maximum for this compound: c1ccc(-c2nc3c(c4c2-c2ccccc2CC4)-c2ccccc2CC3)cc1
Ans. 359 nm

Qu. Please give the measured emission maximum for this compound: Cc1ccc(C(=O)/C=C2\C(=O)Nc3ccccc32)cc1C
Ans. 395 nm

Qu. Please give the measured emission maximum for this compound: N#CSC1=CC2=C(c3c(Cl)cccc3Cl)c3cc(SC#N)c(NCc4ccccc4)n3[B-](F)(F)[N+]2=C1NCc1ccccc1
Ans. 654 nm

Qu. Please give the measured emission maximum for this compound: Cc1cc(C)c2c(c1)c1cc(C)cc(C)c1n2-c1ccc2c(c1)B(c1c(C(C)C)cc(C(C)C)cc1C(C)C)c1cc(-n3c4c(C)cc(C)cc4c4cc(C)cc(C)c43)ccc1N2c1ccccc1
Ans. 447.96 nm

Qu. Please give the measured emission maximum for this compound: CN(C)c1cc(C#N)c(N(C)C)c(C#N)c1
Ans. 519.21 nm

Qu. Please give the measured emission maximum for this compound: COc1ccccc1C1=C2C(C)=CC(C)=[N+]2[B-](F)(F)n2c(C)cc(C)c21
Ans. 514 nm
